- System: SK-MEL-28
- Assay Procedure: NCI tumour cell line growth inhibition, 48 h
Activity calls are given as the source filed them. No stated cut-off is given here; in the data, active = GI50 up to about 1.1 µM and inactive = higher.
Choose one outcome from this list and give only that: yes = active, no = inactive

Example cases with answers are listed next.
[
  {
    "Molecule": "Cc1cc(O)nc(NNC(C#N)c2cccc([N+](=O)[O-])c2)n1 (stereo not drawn)",
    "Assigned Class": "no"
  },
  {
    "Molecule": "O=C(CN1CCCCC1)CC(O)(C(F)(F)F)C(F)(F)F",
    "Assigned Class": "no"
  },
  {
    "Molecule": "C/C=C\\C(C)=C/C(C)C(=O)CC(O)CC1CC(=O)NC(=O)C1 (stereo not drawn)",
    "Assigned Class": "no"
  }
]

Hey, what did the test say about `COc1ccc2nc3ccccc3c(NCCCCCCN(CCCl)CCCl)c2c1` ? yes

Now the same for `O=c1[nH]c2nccnc2c2c([N+](=O)[O-])cccc12` no

---

- Test system: BT-549
- Assay Procedure: NCI tumour cell line growth inhibition, 48 h
Calls of active or inactive are those of the source. Cut-off read from the data, not from the text of the source: active = GI50 up to about 1.1 µM and inactive = higher.
Quantity Measured: GI50

Study these solved cases before continuing.
[
  {
    "Compound": "COC(=O)C12OC(C)(C(CC(=O)OC(C)(C)C)C1=O)C1C(=O)N(c3ccccc3)C(=O)C12 (stereo unspecified)",
    "Experimental Result": "> 100 µM (inactive)"
  },
  {
    "Compound": "CCOC(=O)c1c(N=C(S)Nc2ccc(Cl)cc2)sc2c1CCN(C)C2",
    "Experimental Result": "78.9 µM (inactive)"
  },
  {
    "Compound": "Cc1n[nH]c(=O)n1/N=C/c1ccco1",
    "Experimental Result": "> 100 µM (inactive)"
  },
  {
    "Compound": "CC(=O)c1nc2ccccc2n1CC(=O)c1ccc([N+](=O)[O-])cc1",
    "Experimental Result": "12.6 µM (inactive)"
  }
]

Please report the recorded GI50 for `O=C(c1ccc(Cl)cc1)N1CCN=C1c1cc2ccccc2c2ccccc12` . 19 µM (inactive)

Same question, `CN1C(Cl)=NS(=O)(=O)c2ccccc21` this time > 100 µM (inactive)

Repeat for the following compound: CC1(C)OCC(COC(=O)C=[N+]=[N-])O1 (stereo unspecified) > 100 µM (inactive)

---

- System: SF-295
- Assay Procedure: NCI tumour cell line growth inhibition, 48 h
Active and inactive are the calls of the source. No stated cut-off is given here; in the data, active = GI50 up to about 1.1 µM and inactive = higher.
Quick list: GI50 per entry.

Use the examples below as a reference point.
[
  {
    "Structure As Smiles": "CN(Cc1ccccc1)C1(N(C)Cc2ccccc2)CC1",
    "Quantity Measured": "GI50",
    "Experimental Result": "> 100 µM (inactive)"
  },
  {
    "Structure As Smiles": "C#C[C@@H](CCCC)OC(=O)N[C@H](C)c1ccccc1",
    "Quantity Measured": "GI50",
    "Experimental Result": "77.1 µM (inactive)"
  },
  {
    "Structure As Smiles": "CN(C)CCCNc1ccnc2cccc([N+](=O)[O-])c12",
    "Quantity Measured": "GI50",
    "Experimental Result": "13.3 µM (inactive)"
  },
  {
    "Structure As Smiles": "O=C(/C=C/c1c(O)ccc2ccccc12)c1cccc(O)c1",
    "Quantity Measured": "GI50",
    "Experimental Result": "> 100 µM (inactive)"
  },
  {
    "Structure As Smiles": "O=c1[nH]nc(Cc2ccc(Cl)cc2)n1/N=C\\c1ccc(/C=N/n2c(Cc3ccc(Cl)cc3)n[nH]c2=O)cc1",
    "Quantity Measured": "GI50",
    "Experimental Result": "> 100 µM (inactive)"
  }
]

Now look at this entry.
Checklist item: GI50 tested on SF-295, entry `Cc1nnc2c3nnc(C)n3c3ccccc3n12` , value? > 100 µM (inactive)

The origin of these recorded values is ChEMBL document CHEMBL1201862.
